# Tested on: OVCAR-3 cells
# assay_procedure: MTT assay, cis-platin sensitivity with siRNA
# Type: cell-based, human
# test_context: OVCAR-3 cells with specific siRNA
metric: OVCAR-3: increased sensitivity to cis-platin

These recorded examples may help you get a feel for the data.
substance	reported_result
SAPK/Erk1 siRNA #2: siRNA to SAPK/Erk1; target sequence AAGCGCATCACGACAAGGATA (guide AAGCGCATCACGACAAGGATA; target site or template, no part of the molecule; listed as DNA, chemistry not given here; listed as Homo Sapiens)	yes
Vinexin β siRNA #2: siRNA to Vinexin (AF037261); target sequence AAGAGTTACCTAGAAGCACCT (guide AAGAGTTACCTAGAAGCACCT; target site or template, no part of the molecule; listed as DNA, chemistry not given here; listed as Homo Sapiens)	yes
WDR1 siRNA #1: siRNA to WDR1; target sequence AATGGAAAGTGCGTCATCCTA (guide AATGGAAAGTGCGTCATCCTA; target site or template, no part of the molecule; listed as DNA, chemistry not given here; listed as Homo Sapiens)	yes
Zinc finger protein 262/MYM siRNA #3: siRNA to zinc finger protein 262/MYM; target sequence AAAATATGGGAACCTACAATA (guide AAAATATGGGAACCTACAATA; target site or template, no part of the molecule; listed as DNA, chemistry not given here; listed as Homo Sapiens)	yes
eIF2Bε siRNA #1: siRNA to e-IF2Bε; target sequence AATGTGGTTCGAATAATTACA (guide AATGTGGTTCGAATAATTACA; target site or template, no part of the molecule; listed as DNA, chemistry not given here; listed as Homo Sapiens)	yes
eIF5 siRNA #1: siRNA to eIF5; target sequence AATGACCGTTACATTGTCAAT (guide AATGACCGTTACATTGTCAAT; target site or template, no part of the molecule; listed as DNA, chemistry not given here; listed as Homo Sapiens)	yes
SRB1 siRNA #1: siRNA to SRB1; target sequence AAGCAGCAGGTCCTTAAGAAC (guide AAGCAGCAGGTCCTTAAGAAC; target site or template, no part of the molecule; listed as DNA, chemistry not given here; listed as Homo Sapiens)	yes

Value of OVCAR-3: increased sensitivity to cis-platin reported for the substance NM23D siRNA #3: siRNA to NM23-D; target sequence AATGTCATCCACGCCAGCGAC (guide AATGTCATCCACGCCAGCGAC; target site or template, no part of the molecule; listed as DNA, chemistry not given here; listed as Homo Sapiens) is yes

The reported measurements were obtained from patent US8192935B2.
